Tested on: TAB165
Experiment: qHTS profiling for inhibitors of Plasmodium falciparum proliferation (AID 504749); further: nearly all actives have a fitted effect of over 60% in size
Details: P. falciparum in erythrocytes, SYBR Green DNA, 72 h; series mostly up to 28.7 µM
Inconclusive results are not listed. Active and inactive are the calls of the source. The call rests on the fitted dose curve; in most records, active means well fitted inhibition curve with a large enough effect; inconclusive means small, poorly fitted or top-dose-only effect; inactive means flat fitted curve, though single readings scatter.
Labels: y (active), n (inactive)

{"columns": ["compound", "system", "class-assignment"],
 "data": [
  ["COc1ccc(CCN2CCC(Nc3nc4ccccc4n3Cc3ccc(F)cc3)CC2)cc1", "TAB165", "y"],
  ["CN1CCN(CCCN2c3ccccc3Sc3ccc(S(=O)(=O)N(C)C)cc32)CC1", "TAB165", "y"],
  ["CCCn1c(=O)[nH]c(=O)c2[nH]cnc21", "TAB165", "n"],
  ["CN1CCC(=C2c3ccccc3Sc3ccccc32)CC1", "TAB165", "y"],
  ["CN(C)C(=S)SC(=S)N(C)C", "TAB165", "y"],
  ["C1CCc2nnnn2CC1", "TAB165", "n"],
  ["COc1cccc(CCc2ccccc2OCC(CN(C)C)OC(=O)CCC(=O)O)c1 (configuration not stated)", "TAB165", "y"],
  ["O=S1(=O)c2cccc3cccc(c23)N1CCCN1CCN(c2ccc(F)cc2)CC1", "TAB165", "n"],
  ["CC(C)(C(=O)c1cccnc1)c1cccnc1", "TAB165", "n"],
  ["Cc1c(C)n(CCN(C)C)c2ccc(C(=O)OCCN(C)C)cc12", "TAB165", "n"],
  ["O=c1ccc2ccccc2o1", "TAB165", "n"],
  ["CCN1CCC[C@H]1CNC(=O)c1c(OC)ccc(Br)c1OC", "TAB165", "n"]
]}

###

Experiment: qHTS of pediatric cancer cell lines to identify multiple opportunities for drug repurposing: Primary screen for BT-37 cells (AID 1347094)
Settings: BT-37 viability, CellTiter-Glo luminescence, 48 h; series mostly up to 57.3 µM
Results filed as inconclusive are left out. Active and inactive are the calls of the source. The call rests on the fitted dose curve; in most records, active means well fitted cell-killing curve with a large enough effect; inconclusive means small, poorly fitted or top-dose-only effect; inactive means flat fitted curve, though single readings scatter. Numbered stars: 1 amine (or outer) side, 2 acyl side, 3 side chain; on linkers, the order of the positions; unused ones are H or OH. Bridge positions count the residues as written; N and C are the ends. Square brackets hold non-standard residues; d marks the D form. Peptide text beside a SMILES is read from it. I, II: the chains in the order shown. Actinocin(9to1) = Cc1c2oc3c(C)ccc(C(=O)[*:1])c3nc-2c(C(=O)[*:2])c(N)c1=O; NMeV = CN[C@H](C(=O)O)C(C)C; Sar = CNCC(=O)O
Labels: active, inactive

{"columns": ["compound", "class-assignment"],
 "data": [
  ["Nc1nc2ncc(CNc3ccc(C(=O)N[C@@H](CCC(=O)O)C(=O)O)cc3)nc2c(=O)[nH]1", "inactive"],
  ["C[C@]12CCC(=O)C=C1[C@@H]1C[C@@H]1[C@H]1[C@@H]3[C@@H]4C[C@@H]4[C@@]4(CCC(=O)O4)[C@@]3(C)CC[C@@H]12", "inactive"],
  ["COc1cc2c(cc1OC)C(=O)C(CC1CCN(Cc3ccccc3)CC1)C2 (stereo not drawn)", "inactive"],
  ["COc1cc(OC)cc(OC)c1", "inactive"],
  ["CN=C(NC#N)Nc1ccc(C2=NNC(=O)CC2C)cc1 (stereo not drawn)", "inactive"],
  ["C=CCc1ccc(O)c(OC)c1", "inactive"],
  ["CC(C)=CCC1C(=O)N(c2ccccc2)N(c2ccccc2)C1=O", "inactive"],
  ["CCCN1CCCC[C@H]1C(=O)Nc1c(C)cccc1C", "inactive"],
  ["O=C(O)CCCCC(=O)O", "inactive"],
  ["Cc1c(F)c(N2CCNC(C)C2)cc2c1c(=O)c(C(=O)O)cn2C1CC1 (stereo not drawn)", "inactive"],
  ["CC(Cc1ccccc1)(NC(=O)CN)c1ccccc1 (stereo not drawn)", "inactive"],
  ["Cc1ccc(Nc2c(F)cccc2Cl)c(CC(=O)O)c1", "inactive"],
  ["O=C(CCCN1CCC(O)(c2ccc(Br)cc2)CC1)c1ccc(F)cc1", "active"],
  ["COc1cc(/C=C/C(=O)O[C@H]2CC[C@]34C[C@]35CC[C@]3(C)[C@@H]([C@H](C)CCC=C(C)C)CC[C@@]3(C)[C@@H]5CC[C@H]4C2(C)C)ccc1O", "inactive"],
  ["C[C@]12C=CC(=O)C=C1CC[C@@H]1[C@@H]2[C@@H](O)C[C@@]2(C)[C@H]1CC[C@]2(O)C(=O)CO", "inactive"],
  ["NCCC(O)(P(=O)(O)O)P(=O)(O)O", "inactive"],
  ["C[C@H]1C[C@H]2[C@@H]3CCC4=CC(=O)C=C[C@]4(C)[C@@]3(Cl)[C@@H](O)C[C@]2(C)[C@@]1(O)C(=O)CO", "inactive"],
  ["CC(O)(P(=O)(O)O)P(=O)(O)O", "inactive"],
  ["CCC(=O)c1c(O)cc(O)cc1O", "inactive"],
  ["CN1CCN(C(c2ccccc2)c2ccccc2)CC1", "inactive"],
  ["COc1cc(N)c(Cl)cc1C(=O)NC1CCN(CCCOc2ccc(F)cc2)CC1OC (stereo not drawn)", "inactive"],
  ["CC1(C)OC[C@@H](COC(=O)CCc2ccc(OC[C@@H](O)CNCCNC(=O)N3CCOCC3)cc2)O1", "inactive"],
  ["COc1ccc(C2C(=O)c3ccccc3C2=O)cc1", "inactive"],
  ["CC[N+](CC)(CCNC(=O)C(=O)NCC[N+](CC)(CC)Cc1ccccc1Cl)Cc1ccccc1Cl", "inactive"],
  ["CC1(C)O[C@@H]2[C@@H](CO[C@@]3(COS(N)(=O)=O)OC(C)(C)O[C@@H]23)O1", "inactive"],
  ["Cc1c2oc3c(C)ccc(C(=O)N[C@@H]4C(=O)N[C@H](C(C)C)C(=O)N5CCC[C@H]5C(=O)N(C)CC(=O)N(C)[C@@H](C(C)C)C(=O)O[C@@H]4C)c3nc-2c(C(=O)N[C@@H]2C(=O)N[C@H](C(C)C)C(=O)N3CCC[C@H]3C(=O)N(C)CC(=O)N(C)[C@@H](C(C)C)C(=O)O[C@@H]2C)c(N)c1=O (I: T[dV]P[Sar][NMeV] / II: T[dV]P[Sar][NMeV]; ester I:1-I:C, II:1-II:C; linker I:N-II:N via Actinocin(9to1))", "active"],
  ["CO/N=C1\\CN(c2nc3c(cc2F)c(=O)c(C(=O)O)cn3C2CC2)CC1CN (stereo not drawn)", "inactive"],
  ["COC(=O)[C@@H]1CC2=CC(=O)CC[C@]2(C)[C@@]23O[C@@H]2C[C@@]2(C)[C@@H](CC[C@@]24CCC(=O)O4)[C@H]13", "inactive"],
  ["O=c1[nH]c(=O)n([C@H]2C[C@H](O)[C@@H](CO)O2)cc1C(F)(F)F", "active"],
  ["O=C(CCN1CCC(c2ccccc2)C1)c1ccc2c(c1)OCCO2 (stereo not drawn)", "inactive"],
  ["CCOC(=O)/C=C(C)/C=C/C=C(C)/C=C/c1c(C)cc(OC)c(C)c1C", "inactive"],
  ["COc1c(C)c2c(c(O)c1C/C=C(\\C)CCC(=O)O)C(=O)OC2", "active"],
  ["C/C=C/c1ccc(OC)cc1", "inactive"]
]}

###

// values below are reported activity change, negative = inhibition
Test: AP1 Signaling Pathway (AID 357);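 further: ME-180 reporter cells stimulated with EGF at its EC50 level; on the % scale 0 is the no-effect control and ±100 the full control effect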
Settings: ME-180 (cervical carcinoma) AP-1-bla reporter, EGF-induced, beta-lactamase ratio, 5 h; at 17.2 µM (top of the series)
Records with an inconclusive call do not appear.

{"columns": ["compound", "activity change, negative = inhibition [%]"],
 "data": [
  ["NCCCC[C@H](N[C@@H](CCc1ccccc1)C(=O)O)C(=O)N1CCC[C@H]1C(=O)O", 3.25],
  ["Cc1cc(=O)n(-c2ccccc2)n1C", 3.67],
  ["CC(=O)N(O)CCCCCNC(=O)CCC(=O)N(O)CCCCCNC(=O)CCC(=O)N(O)CCCCCN", -6.04],
  ["O=C(OCCOCCO)c1ccccc1Nc1cccc(C(F)(F)F)c1", -27.7],
  ["CCCCC(=O)O[C@]1(C(=O)CO)CC[C@H]2[C@@H]3CCC4=CC(=O)CC[C@]4(C)[C@H]3[C@@H](O)C[C@@]21C", 5.88],
  ["COc1cc(-c2ccc(=O)[nH]n2)ccc1OC(F)F", -8.42],
  ["C[C@]12CC[C@H]3[C@@H](CCC4=CC(=O)CC[C@@]43C)[C@@H]1CC[C@@H]2C(=O)CO", 12.4],
  ["CN1CCN(CCCN2c3ccccc3Sc3ccc(S(=O)(=O)N(C)C)cc32)CC1", 16.8],
  ["CC(=O)OCC(=O)[C@@]1(O)[C@H](C)C[C@H]2[C@@H]3CCC4=CC(=O)C=C[C@]4(C)[C@@]3(F)[C@@H](O)C[C@@]21C", -10.4],
  ["CN(C)CCCOc1nn(Cc2ccccc2)c2ccccc12", 10.8],
  ["CCCC(=O)Nc1ccc(OCC(O)CNC(C)C)c(C(C)=O)c1 (stereo unspecified)", 0.101],
  ["CCOC(=O)n1ccn(C)c1=S", 13.2],
  ["CCC(NC(C)C)C(O)c1ccc(O)c(O)c1 (stereo unspecified)", -6.11],
  ["CC1(C)O[C@@H]2C[C@H]3[C@@H]4C[C@H](F)C5=CC(=O)CC[C@]5(C)[C@H]4[C@@H](O)C[C@]3(C)[C@]2(C(=O)CO)O1", -0.38],
  ["CC(=O)O[C@H]1C[C@@H]2CC[C@@H]3[C@H](CC[C@@]4(C)[C@H]3C[C@H]([N+]3(C)CCCCC3)[C@@H]4OC(C)=O)[C@@]2(C)C[C@@H]1[N+]1(C)CCCCC1", 10.4],
  ["C[C@@H]1C[C@H]2[C@@H]3CCC4=CC(=O)C=C[C@]4(C)[C@@]3(F)[C@@H](O)C[C@]2(C)[C@H]1C(=O)CO", 0.15],
  ["C[C@H]1C[C@H]2[C@@H]3CCC4=CC(=O)C=C[C@]4(C)[C@@]3(Cl)[C@@H](O)C[C@]2(C)[C@@]1(O)C(=O)CO", -9.37],
  ["COc1c(C)c2c(c(O)c1C/C=C(\\C)CCC(=O)O)C(=O)OC2", 6.58],
  ["CCn1cc(C(=O)O)c(=O)c2cnc(N3CCCC3)nc21", 5.94],
  ["Oc1c(Cl)cc(Cl)cc1Sc1cc(Cl)cc(Cl)c1O", -12.3],
  ["CC(C)(Oc1ccc(Cl)cc1)C(=O)O", -0.859]
]}
